Would you mind telling me the reported Follow-up Biomarker level of each entry?
Experiment: NutriPro test: serum, RBC and WBC nutrient values before and after ATB / customized blend
Format: in vivo, human
Conditions: person one; serum; after customized blend

[ask] Quick one: give measured Follow-up Biomarker level for CC(C)C[C@H](N)C(=O)O
[reply] 222 nmol/m

[ask] Give reported Follow-up Biomarker level value for CC(C)[C@H](N)C(=O)O
[reply] 322 nmol/mL

[ask] Specify reported Follow-up Biomarker level for the compound shown: C[N+](C)(C)CC(O)CC(=O)[O-] (stereo not drawn)
[reply] 42.5 nmol/mL

----------
Test: NutriPro test: serum, RBC and WBC nutrient values before and after ATB / customized blend
Format: in vivo, human
Details: person one; serum; before ATB
Measurement kind: Pre-test biomarker level (nmol/mL)
The reply should be a number in nmol/mL, with the unit left off.

[ask] Identify the reported Pre-test biomarker level for the following entry. NC(=O)CC[C@H](N)C(=O)O [L-glutamine, L-Glutamine]
[reply] 295.3

[ask] State its Pre-test biomarker level for this molecule: CC(C)[C@H](N)C(=O)O [L-Valine]
[reply] 12

[ask] Respond only with Pre-test biomarker level recorded for C[N+](C)(C)CC(O)CC(=O)[O-] (stereo not shown) [Carnitine]
[reply] 9.5

----------
Assay: Vibrant Absorption Factor (VAF): difference of post- and pre-supplementation nutrient values divided by ATB dosage
Conditions: person two; serum
Exercise: state measured VAF for each of the molecules provided.
Enter the number alone.

[ask] Assign VAF to the following record: O[C@H]1[C@H](O)[C@@H](O)[C@H](O)[C@@H](O)[C@H]1O [Myo-Inositol]
[reply] 0.55

[ask] Fill in VAF for record N=C(N)NCCC[C@H](N)C(=O)O [L-Arginine]
[reply] 0.9

[ask] Read off the recorded VAF for CC1=C(C/C=C(\C)CCC[C@H](C)CCC[C@H](C)CCCC(C)C)C(=O)c2ccccc2C1=O [Vitamin K1]
[reply] 0.081

[ask] Indicate the recorded VAF value for this molecule: NC(=O)NCCC[C@H](N)C(=O)O [Citrulline]
[reply] 0.76

[ask] Provide measured VAF value, entry: Nc1nc2ncc(CNc3ccc(C(=O)N[C@@H](CCC(=O)O)C(=O)O)cc3)nc2c(=O)[nH]1 [Folate]
[reply] 0.048

[ask] Please give measured VAF of the following entry: [Mn+2] [Manganese]
[reply] 0.2316

[ask] Identify measured VAF corresponding to COC1=C(OC)C(=O)C(C/C=C(\C)CC/C=C(\C)CC/C=C(\C)CC/C=C(\C)CC/C=C(\C)CC/C=C(\C)CC/C=C(\C)CC/C=C(\C)CC/C=C(\C)CCC=C(C)C)=C(C)C1=O [Coenzyme 10]
[reply] 0.22

[ask] Specify reported VAF for the molecule shown: CC[C@H](C)[C@H](N)C(=O)O [Isoleucine]
[reply] 8.514

[ask] Write down VAF measured for item [Ca] [Calcium]
[reply] 0.5

----------
Assay: Extracellular (serum) nutrient levels by mass spectrometry (LC-MS, GC-MS, ICP-MS)
Conditions: Level: Serum; person; before customized blend
Measurement kind: Actual Nutrient Value (ANV) (nmol/mL)
Respond numerically; units are nmol/mL and should not be typed.

[ask] In one line, give reported Actual Nutrient Value (ANV) of the entry N[C@@H](CO)C(=O)O [L-Serine] .
[reply] 44

[ask] Recall and state the measured Actual Nutrient Value (ANV) for NC(=O)CC[C@H](N)C(=O)O [L-glutamine, L-Glutamine] .
[reply] 302

[ask] Give Actual Nutrient Value (ANV) for [K+] [Potassium]
[reply] 2800

----------
What Pre-test biomarker level was measured for each of the following?
Assay: NutriPro test: serum, RBC and WBC nutrient values before and after ATB / customized blend
Assay type: in vivo, human
Details: person two; serum; before ATB
Record the value in nmol/mL, omitting the unit from your answer.

[ask] Provide measured Pre-test biomarker level value, entry: NC(=O)NCCC[C@H](N)C(=O)O
[reply] 9.1

[ask] Please give measured Pre-test biomarker level of the following entry: O[C@H]1[C@H](O)[C@@H](O)[C@H](O)[C@@H](O)[C@H]1O
[reply] 7.4

[ask] Read the entry CC[C@H](C)[C@H](N)C(=O)O and write its reported Pre-test biomarker level.
[reply] 14.2

[ask] For the compound N=C(N)NCCC[C@H](N)C(=O)O , give its measured Pre-test biomarker level value.
[reply] 58

----------
Would you mind telling me the reported Actual Nutrient Value (ANV) of each entry?
Experiment: NutriPro test: serum, RBC and WBC nutrient values before and after ATB / customized blend
Format: in vivo, human
Conditions: person three; serum; before customized blend

[ask] Please look at this molecule and report its Actual Nutrient Value (ANV): CC[C@H](C)[C@H](N)C(=O)O
[reply] 26.2 nmol/mL

[ask] Output Actual Nutrient Value (ANV) of NC(=O)CC[C@H](N)C(=O)O
[reply] 290 nmol/mL

[ask] Please report Actual Nutrient Value (ANV) for the following molecule: CC(C)[C@H](N)C(=O)O
[reply] 26 nmol/mL

[ask] Return the recorded Actual Nutrient Value (ANV) value; entry: N[C@@H](CO)C(=O)O
[reply] 62 nmol/mL

[ask] Check the records and state Actual Nutrient Value (ANV) for CC(C)C[C@H](N)C(=O)O
[reply] 85 nmol/m

----------
Answer each item with its documented Post-test biomarker level.
Assay: NutriPro test: serum, RBC and WBC nutrient values before and after ATB / customized blend
Assay type: in vivo, human
Settings: person one; serum; after ATB
Write the number in µg/mL without appending the unit.

[ask] # return recorded Post-test biomarker level for entry [Cu]
[reply] 0.9

[ask] Give reported Post-test biomarker level value for [Mg]
[reply] 17

[ask] Consider the compound COC1=C(OC)C(=O)C(C/C=C(\C)CC/C=C(\C)CC/C=C(\C)CC/C=C(\C)CC/C=C(\C)CC/C=C(\C)CC/C=C(\C)CC/C=C(\C)CC/C=C(\C)CCC=C(C)C)=C(C)C1=O . State its measured Post-test biomarker level.
[reply] 0.32

[ask] // fetch Post-test biomarker level given entry [Ca]
[reply] 73

----------
Test: NutriPro test: serum, RBC and WBC nutrient values before and after ATB / customized blend
Format: in vivo, human
Details: person three; serum; after customized blend
Assign Follow-up Nutrient Level to each entry below.
State the answer as a number, implicitly in nmol/mL.

[ask] Please list Follow-up Nutrient Level recorded for the compound CC[C@H](C)[C@H](N)C(=O)O
[reply] 144

[ask] Please indicate Follow-up Nutrient Level recorded for NC(=O)CC[C@H](N)C(=O)O
[reply] 677

[ask] For CC(C)[C@H](N)C(=O)O , write its Follow-up Nutrient Level.
[reply] 332

[ask] Assign Follow-up Nutrient Level to the following record: N[C@@H](CO)C(=O)O
[reply] 131

----------
Experiment: Vibrant Absorption Factor (VAF): difference of post- and pre-supplementation nutrient values divided by ATB dosage
Conditions: person one; serum
Please respond with reported VAF for every item in the list.
Could you respond with only the numeric value?

[ask] State, in one line, measured VAF of [Cu]
[reply] 8.75

[ask] Look up VAF of CC(C)[C@H](N)C(=O)O and report it.
[reply] 8.75

[ask] For the compound Nc1nc2ncc(CNc3ccc(C(=O)N[C@@H](CCC(=O)O)C(=O)O)cc3)nc2c(=O)[nH]1 [Folate] , give its measured VAF value.
[reply] 0.032

[ask] Could you please provide reported VAF for [Ca] ? Thanks!
[reply] 0.8

[ask] Report VAF, nothing else, for this compound: O=C(O)c1cccnc1
[reply] 0.7

[ask] Identify VAF associated with the compound COC1=C(OC)C(=O)C(C/C=C(\C)CC/C=C(\C)CC/C=C(\C)CC/C=C(\C)CC/C=C(\C)CC/C=C(\C)CC/C=C(\C)CC/C=C(\C)CC/C=C(\C)CCC=C(C)C)=C(C)C1=O
[reply] 0.024

[ask] Report measured VAF; entry is CC(C)C[C@H](N)C(=O)O
[reply] 5.429

[ask] Quickly give me recorded VAF for [Mg]
[reply] 0.012

[ask] Given the compound C=C1CC[C@H](O)C/C1=C/C=C1\CCC[C@]2(C)[C@@H]([C@H](C)CCCC(C)C)CC[C@@H]12 , write its reported VAF.
[reply] 0.018

----------
Assay: NutriPro test: serum, RBC and WBC nutrient values before and after ATB / customized blend
Format: in vivo, human
Conditions: person one; serum; after ATB
Measurement kind: Post-test biomarker level (nmol/mL)
Just the number in nmol/mL, nothing appended.

[ask] Return Post-test biomarker level for the following compound: C[N+](C)(C)CC(O)CC(=O)[O-] (stereo not drawn)
[reply] 14.9

[ask] // fetch Post-test biomarker level given entry CC(C)[C@H](N)C(=O)O
[reply] 4.7e+10
